Method notes: RP, Waters CORTECS T3, 100 × 2.1 mm, 2.7 µm, 0.2 mL/min, estimated dead time 1.1 min; A: water + 0.1% formic acid, pH 3; B: methanol + 0.1% formic acid, pH 3; gradient (min/%B) 0/0 1/0 6/5 30/100 35/100 35.1/0 40/0
Measurement context: stereoisomer not certain
Test readout: LC retention time (min)

// worked examples, LC retention time included
# Molecule, Scale unit, Reported result
records = [
    ("OCCc1c[nH]c2ccccc12", "min", 16.2),
    ("COC(=O)Cc1c[nH]c2ccccc12 [METHYL INDOLE-3-ACETATE]", "min", 19.3),
    ("CC(=O)N[C@H](Cc1c[nH]c2ccccc12)C(=O)O", "min", 15.7),
    ("C=Cc1c(C)c2cc3[nH]c(cc4nc(cc5nc(cc1[nH]2)C(C)=C5CCC(=O)O)C(CCC(=O)O)=C4C)c(C)c3C=C", "min", 30.7),
    ("N[C@@H](Cc1ccc(O)c([N+](=O)[O-])c1)C(=O)O", "min", 8.81),
    ("CC(=O)NCCc1c[nH]c2ccc(O)cc12", "min", 12.1),
    ("CSCC1OC(n2cnc3c(N)ncnc32)C(O)C1O (centres undefined)", "min", 11.3),
]

(A) NC(=O)c1cccnc1 [NICOTINAMIDE]
(B) O=C([O-])Cc1c[nH]c2ccccc12 [INDOLE-3-ACETATE]
// query // returns A or B , whichever has the lower LC retention time Give the chosen item's label as your response.
// result A
(A: 2.36 min, B: 16.4 min)
